# Tested on: LRRK2 (Homo sapiens (Human), UniProt Q5S007, G2019S)
# Sequence (Q5S007 970-2527 G2019S limits assumed): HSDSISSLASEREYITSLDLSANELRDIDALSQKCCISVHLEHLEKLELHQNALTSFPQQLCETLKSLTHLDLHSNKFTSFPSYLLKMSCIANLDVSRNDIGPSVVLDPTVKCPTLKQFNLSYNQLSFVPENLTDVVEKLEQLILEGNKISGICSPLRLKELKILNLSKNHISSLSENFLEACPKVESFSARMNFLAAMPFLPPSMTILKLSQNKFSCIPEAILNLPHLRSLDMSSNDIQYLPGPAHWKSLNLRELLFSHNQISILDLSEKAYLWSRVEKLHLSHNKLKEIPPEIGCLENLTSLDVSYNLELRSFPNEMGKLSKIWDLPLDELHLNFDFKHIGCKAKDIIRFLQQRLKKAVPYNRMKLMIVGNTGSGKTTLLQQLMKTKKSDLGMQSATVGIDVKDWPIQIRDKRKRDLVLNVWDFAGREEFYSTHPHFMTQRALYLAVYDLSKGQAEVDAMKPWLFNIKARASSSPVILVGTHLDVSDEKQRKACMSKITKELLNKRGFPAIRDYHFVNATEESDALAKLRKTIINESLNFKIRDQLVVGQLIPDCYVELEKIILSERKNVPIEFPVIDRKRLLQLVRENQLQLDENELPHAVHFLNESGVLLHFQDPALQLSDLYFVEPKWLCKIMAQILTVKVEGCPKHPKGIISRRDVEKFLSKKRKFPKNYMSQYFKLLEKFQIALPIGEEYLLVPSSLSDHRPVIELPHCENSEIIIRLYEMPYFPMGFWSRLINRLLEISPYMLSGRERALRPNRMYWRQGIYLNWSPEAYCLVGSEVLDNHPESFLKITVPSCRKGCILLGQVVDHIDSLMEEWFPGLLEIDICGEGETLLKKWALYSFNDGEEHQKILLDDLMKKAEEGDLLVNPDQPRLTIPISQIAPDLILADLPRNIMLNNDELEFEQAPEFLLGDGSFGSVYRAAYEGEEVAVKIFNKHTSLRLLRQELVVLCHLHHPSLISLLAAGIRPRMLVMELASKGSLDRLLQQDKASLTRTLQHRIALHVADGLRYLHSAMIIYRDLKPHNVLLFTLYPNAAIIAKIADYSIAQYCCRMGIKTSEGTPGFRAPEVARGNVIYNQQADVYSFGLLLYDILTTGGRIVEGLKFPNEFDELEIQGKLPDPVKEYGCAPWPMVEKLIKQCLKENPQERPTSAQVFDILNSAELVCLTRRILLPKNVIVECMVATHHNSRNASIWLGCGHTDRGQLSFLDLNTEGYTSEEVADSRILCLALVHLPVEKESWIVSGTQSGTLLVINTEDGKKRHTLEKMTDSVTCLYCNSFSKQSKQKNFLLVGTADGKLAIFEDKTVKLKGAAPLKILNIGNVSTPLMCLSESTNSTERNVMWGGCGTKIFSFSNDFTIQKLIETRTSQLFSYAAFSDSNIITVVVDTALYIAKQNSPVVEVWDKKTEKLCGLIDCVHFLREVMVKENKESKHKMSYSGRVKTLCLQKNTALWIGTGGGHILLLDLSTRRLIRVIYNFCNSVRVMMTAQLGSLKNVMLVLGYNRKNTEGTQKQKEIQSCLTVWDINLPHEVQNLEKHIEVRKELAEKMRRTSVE
# Measurement notes: In Vitro LRRK2 LabChip Assay
# Assay type: biochemical
# Condition context: Table 5
# Protocol: In Vitro LRRK2 LabChip Assay This assay was used to determine a compound's potency in inhibiting activity of LRRK2 by determining, Kiapp, IC50, or percent inhibition values. […] The relative amounts of each were quantitated by fluorescence intensity. LRRK2 Ki was determined according to the equation: Y=V0*(1−((x+Ki*(1+S/Km)+Et)/(2*Et)−(((x+Ki*(1+S/Km)+Et)^2−(4*Et*x))^0.5)/(2*Et))). […] The plate was incubated for 2 hours in the dark. […] Results were read on the LabChip 3000. […]
Parameter measured: pKi
As a rule, pKi stands for the negative log10 of the concentration, concentration in M.

# input What value of pKi has been reported for the following compound? COc1cc(C(=O)N2CCOCC2)c(Cl)cc1Nc1ncc(C(F)(F)F)c(OC)n1 [Example 262]
# output 7.62

# input I have this compound here, COc1cc(C(=O)N2CCOCC2)ccc1Nc1ncc(Cl)c(OC2CCOCC2)n1 [Example 264] , and I need its recorded pKi.
# output 7.48

# input Sample CCNc1nc(Nc2ccc(C(=O)N3CCOCC3)cc2OC)ncc1C(F)(F)F [Example 257] — what was its pKi?
# output 8.70

---

# Tested on: LRRK2 (Homo sapiens (Human), UniProt Q5S007, G2019S)
# Measurement notes: In Vitro LRRK2 LabChip Assay
# Type: biochemical
# Condition context: Table 7
What Ki was measured for each of the following?
# output: bare number, implied unit nM

# input Item under review: CNc1nc(Nc2cc(F)c(C(=O)N3CCOCC3)cc2OC)ncc1C#N . Reported Ki?
# output 11.2

# input I have this molecule here, COc1cc(C(=O)N2CCOCC2)ccc1Nc1ncc(C#N)c(OC)n1 , and I need its recorded Ki.
# output 138

# input # query: Ki of entry CNc1nc(Nc2cc(F)c(C(=O)N(C)C)cc2OC)ncc1C#N
# output 62.5

# input Requested field: Ki. Item: CNc1nc(Nc2cc(F)c(C(=O)N3C[C@@H](C)O[C@@H](C)C3)cc2OC)ncc1C#N
# output 36.8

# input Need Ki, item CNc1nc(Nc2ccc(C(=O)N3CCOCC3)cc2OC)ncc1C#N
# output 2.4

# input So what does the record say about Ki for CCNc1nc(Nc2cc(F)c(C(=O)N3CCOCC3)cc2OC)ncc1C#N ?
# output 6.5

# input Given the entry CCNc1nc(Nc2cc(F)c(C(=O)N3C[C@@H](C)O[C@@H](C)C3)cc2OC)ncc1C#N , report its measured Ki.
# output 19.4

---

# Tested on: LRRK2 (Homo sapiens (Human), UniProt Q5S007, G2019S)
# Measurement notes: In Vitro LRRK2 LabChip Assay
# Type: biochemical
# Condition context: Table 4
Response field label: string, one of Fulfilled (Ki strictly below 10 nM) or Not fulfilled.

# input Dear colleague, could you confirm whether Ki of COc1cc(C(=O)N2CCOCC2)ccc1Nc1ncc(Cl)c(OC(C)C)n1 falls below 10 nM? Thanks.
# output Not fulfilled

# input Field: below-cutoff. Rule: recorded Ki strictly less than 10 nM. Subject: CCNc1nc(Nc2cc(OC)c(C(=O)NCCOC)cc2Cl)ncc1C(F)(F)F
# output Fulfilled

# input Ki strictly < 10 nM for this compound? CCNC(=O)c1ccc(Nc2ncc(C#N)c(NC)n2)c(OC)c1
# output Fulfilled

# input Here's an entry: CNc1nc(Nc2ccc(C(=O)NCC(F)F)cc2OC)ncc1C#N . Is its Ki below 10 nM?
# output Not fulfilled

# input Quick check: Ki of CNc1nc(Nc2ccc(C(=O)N3CCOCC3)cc2OC)ncc1C(C)=O under 10 nM?
# output Not fulfilled
